Values from patent US20250066490A1

I'd be grateful if you could share measured EC50 for these entries.
Target: T1, human CD70 expressed on the cell surface of tumor cell lines (human, UniProt P32970 1-193)
T1 construct: whole, on cells
T1 sequence (looked up): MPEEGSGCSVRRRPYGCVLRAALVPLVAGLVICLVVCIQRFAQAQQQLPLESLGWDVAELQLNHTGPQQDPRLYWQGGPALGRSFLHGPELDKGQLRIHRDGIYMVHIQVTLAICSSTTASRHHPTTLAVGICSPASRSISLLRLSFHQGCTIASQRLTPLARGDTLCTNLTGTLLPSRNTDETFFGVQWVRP
Experiment: flow cytometry on DBTRG-05MG cells, PE anti-human Fc, MFI; same fit as Table 6, which prints it in nM
Give the value, in units of µg/mL, as a plain number.

Answer with reported EC50 of 2E7, full IgG (antibody, V domains shown) VH: QVQLQESGPGLVKPSETLSLTCTVSGGSVSSDYYYWSWIRQPPGKGLEWLGYIYYSGSTNYNPSLKSRVTISVDTSKNQFSLKLRSVTTADTAVYYCARGDGDFLGVCFDYWGQGTLVTVSS VL: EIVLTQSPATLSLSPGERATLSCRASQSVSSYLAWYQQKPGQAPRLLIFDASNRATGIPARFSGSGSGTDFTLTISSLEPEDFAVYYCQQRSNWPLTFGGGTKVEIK 0.917

Answer with reported EC50 of 2A4P0L1, full IgG (antibody, V domains shown) VH: QVQLQESGPGLVKPSETLSLTCTVSGGSVSSDYYYWSWIRQPPGKGLEWLGYIYYSGSTNYNPSLKSRVTISVDTSKNQFSLKLRSVTTADTAVYYCARGDGDYGGNVFPYWGQGTLVTVSS VL: EIVLTQSPATLSLSPGERATLSCRASQSVSSYLAWYQQKPGQAPRLLIFDASNRATGIPARFSGSGSGTDFTLTISSLEPEDFAVYYCQQRLKFPLTFGGGTKVEIK 0.876
